RUN_DESCRIPTION: Clearance in Sprague-Dawley rat at 1 mg/kg, iv measured for 24 hrs by LC-MS/MS analysis
Type: ADME, organism-based
STUDY_CONDITIONS: in vivo
ENDPOINT_LABEL: clearance (mL/min/kg)
Field: numeric (mL/min/kg). Do not append units.

Quick check: clearance of `CN1CCC(=C(F)c2cccc(NC(=O)c3c(F)cc(F)cc3F)n2)CC1` ?
127

Which clearance is listed for `CN1CCC(=C(F)c2cccc(NC(=O)c3ccc(Cl)cc3)n2)CC1` ?
180

For `CN1CCC(=C(F)c2cccc(NC(=O)c3ccc(Cl)cc3F)n2)CC1` , what is its reported clearance?
178

Given `CN1CCC(C(=O)c2cccc(NC(=O)c3c(F)cc(F)cc3F)n2)CC1` , state its recorded clearance.
127

Entry `CN1CCC(=C(F)c2cccc(NC(=O)c3ccc(F)cc3)n2)CC1` : reported clearance = ?
156

Requested read-out: clearance. Entry: `CN1CCC(=C(F)c2cccc(NC(=O)c3ccc(F)cc3F)n2)CC1`
229

Give the measured clearance of `CN1CCC(=C(F)c2cccc(NC(=O)c3ccc(F)cn3)n2)CC1` .
159

----------
RUN_DESCRIPTION: Half life in Sprague-Dawley rat at 5 mg/kg, ig measured for 24 hrs by LC-MS/MS analysis
Assay type: ADME, organism-based
STUDY_CONDITIONS: in vivo, po
ENDPOINT_LABEL: half-life (h)
The answer is to be given in h; state only the numeric part.

Form field: reported half-life of `CN1CCC(=C(F)c2cccc(NC(=O)c3ccc(F)cn3)n2)CC1`
1.24

// query half-life value for entry `CN1CCC(=C(F)c2cccc(NC(=O)c3ccc(Cl)cc3)n2)CC1`
2.41

Item `CN1CCC(=C(F)c2cccc(NC(=O)c3c(F)cc(F)cc3F)n2)CC1` has what recorded half-life?
2.95

Quick one: half-life for `CN1CCC(=C(F)c2cccc(NC(=O)c3ccc(F)cc3F)n2)CC1` ?
0.824

Entry under review: `CN1CCC(=C(F)c2cccc(NC(=O)c3ccc(Cl)cc3F)n2)CC1` . Reported half-life?
1.68

Would you mind telling me what half-life value was observed for `CN1CCC(C(=O)c2cccc(NC(=O)c3c(F)cc(F)cc3F)n2)CC1` ?
3.38

Entry under review: `CN1CCC(=C(F)c2cccc(NC(=O)c3ccc(F)cc3)n2)CC1` . Reported half-life?
1.41

----------
RUN_DESCRIPTION: Half life in Sprague-Dawley rat at 1 mg/kg, iv measured for 24 hrs by LC-MS/MS analysis
Format: ADME, organism-based
STUDY_CONDITIONS: in vivo
ENDPOINT_LABEL: half-life (h)
API: value field is a number in h; no unit string.

What does the data say about its half-life? Entry: `CN1CCC(=C(F)c2cccc(NC(=O)c3ccc(F)cc3)n2)CC1`
1.37

So what does the record say about half-life for `CN1CCC(=C(F)c2cccc(NC(=O)c3ccc(F)cc3F)n2)CC1` ?
1.05

Value lookup for half-life; key = `CN1CCC(=C(F)c2cccc(NC(=O)c3ccc(Cl)cc3F)n2)CC1`
1.42

Any idea what its half-life is? The molecule is `CN1CCC(=C(F)c2cccc(NC(=O)c3c(F)cc(F)cc3F)n2)CC1`
1.33

Dear colleague, I am looking for the recorded half-life of the following molecule: `CN1CCC(C(=O)c2cccc(NC(=O)c3c(F)cc(F)cc3F)n2)CC1`
3.12

Given the molecule `CN1CCC(=C(F)c2cccc(NC(=O)c3ccc(Cl)cc3)n2)CC1` , what is its reported half-life?
1.6

// half-life lookup, key: `CN1CCC(=C(F)c2cccc(NC(=O)c3ccc(F)cn3)n2)CC1`
0.924

Cited source for all entries: ChEMBL document CHEMBL4828744
